Test: Malate dehydrogenase activity (natural substrate)
Type: biochemical
Conditions: activity measured at 50 mM malate; Table 4
Max. specific activity, malate by entry:
Please state the figure in µmol/mg/min; there is no need to write the unit.

Example entries and their recorded answers appear below.
[
  {
    "MOLECULE": "Ec-MdhR81A G179D: E. coli malate dehydrogenase mutant R81A G179D, SEQ ID No. 168 (protein, listed as Escherichia coli) MKVAVLGAAGGIGQALALLLKTQLPSGSELSLYDIAPVTPGVAVDLSHIPTAVKIKGFSGEDATPALEGADVVLISAGVAAKPGMDRSDLFNVNAGIVKNLVQQVAKTCPKACIGIITNPVNTTVAIAAEVLKKAGVYDKNKLFGVTTLDIIRSNTFVAELKGKQPGEVEVPVIGGHSDVTILPLLSQVPGVSFTEQEVADLTKRIQNAGTEVVEAKAGGGSATLSMGQAAARFGLSLVRALQGEQGVVECAYVEGDGQYARFFSQPLLLGKNGVEERKSIGTLSAFEQNALEGMLDTLKKDIALGEEFVNK",
    "Max. specific activity, malate (µmol/mg/min)": 0.52
  },
  {
    "MOLECULE": "Ec-MdhR81A M85E: E. coli malate dehydrogenase mutant R81A M85E, SEQ ID No 160 (protein, listed as Escherichia coli) MKVAVLGAAGGIGQALALLLKTQLPSGSELSLYDIAPVTPGVAVDLSHIPTAVKIKGFSGEDATPALEGADVVLISAGVAAKPGEDRSDLFNVNAGIVKNLVQQVAKTCPKACIGIITNPVNTTVAIAAEVLKKAGVYDKNKLFGVTTLDIIRSNTFVAELKGKQPGEVEVPVIGGHSGVTILPLLSQVPGVSFTEQEVADLTKRIQNAGTEVVEAKAGGGSATLSMGQAAARFGLSLVRALQGEQGVVECAYVEGDGQYARFFSQPLLLGKNGVEERKSIGTLSAFEQNALEGMLDTLKKDIALGEEFVNK",
    "Max. specific activity, malate (µmol/mg/min)": 0.65
  },
  {
    "MOLECULE": "Ec-MdhR81A M85E I12V: E. coli malate dehydrogenase mutant R81A M85E I12V, SEQ ID No. 166 (protein, listed as Escherichia coli) MKVAVLGAAGGVGQALALLLKTQLPSGSELSLYDIAPVTPGVAVDLSHIPTAVKIKGFSGEDATPALEGADVVLISAGVAAKPGEDRSDLFNVNAGIVKNLVQQVAKTCPKACIGIITNPVNTTVAIAAEVLKKAGVYDKNKLFGVTTLDIIRSNTFVAELKGKQPGEVEVPVIGGHSGVTILPLLSQVPGVSFTEQEVADLTKRIQNAGTEVVEAKAGGGSATLSMGQAAARFGLSLVRALQGEQGVVECAYVEGDGQYARFFSQPLLLGKNGVEERKSIGTLSAFEQNALEGMLDTLKKDIALGEEFVNK",
    "Max. specific activity, malate (µmol/mg/min)": 0.91
  },
  {
    "MOLECULE": "Bs-MdhR87C: B. subtilis malate dehydrogenase mutant R87C, SEQ ID No. 154 (protein, listed as Bacillus subtilis) MGNTRKKVSVIGAGFTGATTAFLIAQKELADVVLVDIPQLENPTKGKALDMLEASPVQGFDAKITGTSNYEDTAGSDIVVITAGIACKPGMSRDDLVSTNEKIMRSVTQEIVKYSPDSIIVVLTNPVDAMTYAVYKESGFPKERVIGQSGVLDTARFRTFVAEELNLSVKDVTGFVLGGHGDDMVPLVRYSYAGGIPLETLIPKERIDAIVERTRKGGGEIVNLLGNGSAYYAPAASLTEMVEAILKDQRRVLPTIAYLEGEYGYEGIYLGVPTIVGGNGLEQIIELELTDYERAQLNKSVESVKNVMKVLS",
    "Max. specific activity, malate (µmol/mg/min)": 0.13
  }
]

Next up:
The recorded Max. specific activity, malate for entry Ec-MdhR81A: E. coli malate dehydrogenase mutant R81A, SEQ ID No. 156 (protein, listed as Escherichia coli) MKVAVLGAAGGIGQALALLLKTQLPSGSELSLYDIAPVTPGVAVDLSHIPTAVKIKGFSGEDATPALEGADVVLISAGVAAKPGMDRSDLFNVNAGIVKNLVQQVAKTCPKACIGIITNPVNTTVAIAAEVLKKAGVYDKNKLFGVTTLDIIRSNTFVAELKGKQPGEVEVPVIGGHSGVTILPLLSQVPGVSFTEQEVADLTKRIQNAGTEVVEAKAGGGSATLSMGQAAARFGLSLVRALQGEQGVVECAYVEGDGQYARFFSQPLLLGKNGVEERKSIGTLSAFEQNALEGMLDTLKKDIALGEEFVNK equals 0.12
